# Test system: Salmonella typhimurium Ames mutagenicity, literature compiled
# assay summary: DSSTox (CPDBAS) Carcinogenic Potency Database Salmonella Mutagenicity
# Description: The Carcinogenic Potency Database (CPDB) is a unique and widely used international resource of the results of over 6500 chronic, long-term animal cancer tests on over 1500 chemical substances. The CPDB provides easy access to the bioassay literature, with qualitative and quantitative analyses of both positive and negative experiments that have been published over the past 50 years in the general literature and by the National Cancer Institute/National Toxicology Program. […]
Calls of active or inactive are those of the source.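 The calls were made as follows: active = chemicals rated mutagenic or weakly mutagenic in the Salmonella bacterial test by one literature review, or positive overall by another; inconclusive = no clear call, values can overlap the other calls; inactive = the rest.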
measurement label: outcome

compound	measurement label	val
CNNC	outcome	active
OC(c1ccc(Cl)cc1)(c1ccc(Cl)cc1)C(Cl)(Cl)Cl	outcome	inactive; active
CCOc1ccc(NC(C)=O)cc1N	outcome	active
CCCCOC(=O)c1ccc(O)cc1	outcome	inactive; active
Clc1ccc(C(c2ccc(Cl)cc2)C(Cl)(Cl)Cl)cc1	outcome	inactive

Supply outcome measured with Salmonella typhimurium Ames mutagenicity, literature compiled for CNC(=O)O/N=C/C(C)(C)SC .
inactive

Supply outcome measured with Salmonella typhimurium Ames mutagenicity, literature compiled for CCCCOC(=O)c1ccccc1C(=O)OCc1ccccc1 .
inactive

Supply outcome measured with Salmonella typhimurium Ames mutagenicity, literature compiled for CC(C)Oc1ccccc1OC(=O)N(C)N=O .
active

Supply outcome measured with Salmonella typhimurium Ames mutagenicity, literature compiled for O=P(OC(CCl)CCl)(OC(CCl)CCl)OC(CCl)CCl .
active

Supply outcome measured with Salmonella typhimurium Ames mutagenicity, literature compiled for CC1CN(N=O)C(=O)NC1=O (centres undefined) .
active

Supply outcome measured with Salmonella typhimurium Ames mutagenicity, literature compiled for O=P1(NCCCl)OCCCN1CCCl (centres undefined) .
active; inactive

Supply outcome measured with Salmonella typhimurium Ames mutagenicity, literature compiled for CCCCCCN(N=O)C(N)=O .
active

Supply outcome measured with Salmonella typhimurium Ames mutagenicity, literature compiled for C=CBr .
active; inactive

Supply outcome measured with Salmonella typhimurium Ames mutagenicity, literature compiled for OO .
active

Supply outcome measured with Salmonella typhimurium Ames mutagenicity, literature compiled for ClCC(Cl)Cl .
inactive

Supply outcome measured with Salmonella typhimurium Ames mutagenicity, literature compiled for O=S(=O)(O)c1c(N=Nc2c(O)ccc3ccccc23)ccc2ccccc12 .
inactive; active

Supply outcome measured with Salmonella typhimurium Ames mutagenicity, literature compiled for CC(O)CNCC(C)O (centres undefined) .
inactive

Supply outcome measured with Salmonella typhimurium Ames mutagenicity, literature compiled for CC(CCl)OC(C)CCl (centres undefined) .
active

Supply outcome measured with Salmonella typhimurium Ames mutagenicity, literature compiled for C=CC#N .
active

Supply outcome measured with Salmonella typhimurium Ames mutagenicity, literature compiled for NC(=O)CCCCC(N)=O .
inactive

Supply outcome measured with Salmonella typhimurium Ames mutagenicity, literature compiled for Clc1nc(Cl)nc(Nc2ccccc2Cl)n1 .
inactive

Supply outcome measured with Salmonella typhimurium Ames mutagenicity, literature compiled for CCCCN(N=O)C(=N)N[N+](=O)[O-] .
active

Supply outcome measured with Salmonella typhimurium Ames mutagenicity, literature compiled for [O]=[Cr](=[O])([OH])[O][Cr](=[O])(=[O])[OH] .
active

Supply outcome measured with Salmonella typhimurium Ames mutagenicity, literature compiled for COc1ccc(N)c(OC)c1 .
active; inactive

Supply outcome measured with Salmonella typhimurium Ames mutagenicity, literature compiled for O=P(OCC(Br)CBr)(OCC(Br)CBr)OCC(Br)CBr (centres undefined) .
active

Supply outcome measured with Salmonella typhimurium Ames mutagenicity, literature compiled for O=CNNc1nc(-c2ccc([N+](=O)[O-])o2)cs1 .
active; inactive

Supply outcome measured with Salmonella typhimurium Ames mutagenicity, literature compiled for Cc1cccc(N=Nc2ccc(N(C)C)cc2)c1 .
active; inactive

Supply outcome measured with Salmonella typhimurium Ames mutagenicity, literature compiled for CCn1c2ccccc2c2cc(N)ccc21 .
active

Supply outcome measured with Salmonella typhimurium Ames mutagenicity, literature compiled for CC[C@H]1OC(=O)[C@H](C)[C@@H](O[C@H]2C[C@@](C)(OC)[C@@H](O)[C@H](C)O2)[C@H](C)[C@@H](O[C@@H]2O[C@H](C)C[C@H](N(C)C)[C@H]2O)[C@](C)(O)C[C@@H](C)C(=O)[C@H](C)[C@@H](O)[C@]1(C)O .
inactive
